Measured values drawn from paper PMC10397247 for this set.

# target_desc: T1, O13-bN
# T1 chain: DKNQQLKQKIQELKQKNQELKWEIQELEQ
# experimental_protocol: two-hybrid library CCNG1;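 further: natural log of median RNA to DNA barcode read ratio; higher means stronger binding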
The entries below are paired with their reported interaction score.

binder | interaction score
DKIQQLKQEIQELEQENQELEWENQELEQ [O11-bN] | -0.808
DEIQQLEQKIQELKQKNQELKWKNQELKQ [O12-bN] | -0.316
DKNQQLKQENQELEQEIQELEWEIQELEQ [O1-bN] | -1.14
DKNQQLKQENQELEQKIQELKWKIQELKQ [O10-bN] | -0.398
